// UniProtKB O76083 IC50 records
Sequence (O76083 whole entry): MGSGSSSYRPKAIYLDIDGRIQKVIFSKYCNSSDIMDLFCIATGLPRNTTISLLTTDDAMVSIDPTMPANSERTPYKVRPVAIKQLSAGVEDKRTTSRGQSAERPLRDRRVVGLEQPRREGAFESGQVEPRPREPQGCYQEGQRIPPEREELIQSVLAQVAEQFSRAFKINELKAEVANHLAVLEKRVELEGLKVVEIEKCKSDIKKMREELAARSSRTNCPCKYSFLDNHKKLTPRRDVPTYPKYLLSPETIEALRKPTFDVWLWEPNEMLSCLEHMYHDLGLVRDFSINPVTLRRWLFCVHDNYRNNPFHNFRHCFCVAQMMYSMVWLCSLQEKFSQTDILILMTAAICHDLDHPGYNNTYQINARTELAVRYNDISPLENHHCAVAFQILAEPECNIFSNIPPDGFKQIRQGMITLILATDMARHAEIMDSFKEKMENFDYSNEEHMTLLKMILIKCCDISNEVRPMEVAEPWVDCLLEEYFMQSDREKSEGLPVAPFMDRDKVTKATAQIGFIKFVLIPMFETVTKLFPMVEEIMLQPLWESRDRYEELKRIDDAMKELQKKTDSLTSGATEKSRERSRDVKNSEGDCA

| molecule | IC50, nM |
| --- | --- |
| CC(c1nc2c(cnn2C2CCCC2)c(=O)[nH]1)C1CC(Cc2ccc(C(=O)NO)cc2)C1 (stereo not drawn) | 107 |
| CC(c1nc2c(cnn2C2CCCC2)c(=O)[nH]1)N1CC(Cc2ccc(C(=O)Nc3ccccc3N)cc2)C1 (stereo not drawn) | 57 |
| C[C@@H]1CN(Cc2ccc(CC(=O)CNO)cc2)C[C@H]1c1nc2c(cnn2C2CCOCC2)c(=O)[nH]1 | 8 |

----------
- tgt: Cholinesterase (Equus caballus)
- Sequence (P81908 whole entry): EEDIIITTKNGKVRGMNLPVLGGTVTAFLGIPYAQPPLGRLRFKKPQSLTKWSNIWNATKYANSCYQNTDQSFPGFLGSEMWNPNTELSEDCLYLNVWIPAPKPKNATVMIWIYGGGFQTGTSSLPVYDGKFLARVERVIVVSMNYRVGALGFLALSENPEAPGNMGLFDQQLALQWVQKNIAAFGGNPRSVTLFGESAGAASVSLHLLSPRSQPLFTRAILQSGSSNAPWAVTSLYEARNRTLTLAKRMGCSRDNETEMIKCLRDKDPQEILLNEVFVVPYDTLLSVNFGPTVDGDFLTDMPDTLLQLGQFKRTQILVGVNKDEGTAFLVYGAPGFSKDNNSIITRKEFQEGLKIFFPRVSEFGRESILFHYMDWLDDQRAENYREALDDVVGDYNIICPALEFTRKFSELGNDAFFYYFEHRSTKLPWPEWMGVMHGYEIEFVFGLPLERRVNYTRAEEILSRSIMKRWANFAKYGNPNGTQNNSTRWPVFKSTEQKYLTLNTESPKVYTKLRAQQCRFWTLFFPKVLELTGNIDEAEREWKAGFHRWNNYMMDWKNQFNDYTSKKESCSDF
- assay_text: Inhibition of equine serum BChE using butyrylthiocholine iodide measured after 25 mins by Ellman's spectrophotometric method
The reader will find reported IC50 values listed item by item below.
measured_parameter: IC50 (nM)

| molecule | measured_parameter | reading |
| --- | --- | --- |
| COC(=O)/C1=C/N(C(C)C)CCc2nc(-c3ccccc3)[nH]c(=O)c2C1 | IC50 | 1300 |
| CCN(CC)CCCNC1NC(c2ccccc2)=NC2=C1C/C(C(=O)OC)=C\N(C(C)C)CC2 (configuration not stated) | IC50 | 105 |

----------
# key: entry, value: IC50
- tgt: Acetylcholinesterase (Homo sapiens, UniProt P22303)
- Sequence (P22303 whole entry): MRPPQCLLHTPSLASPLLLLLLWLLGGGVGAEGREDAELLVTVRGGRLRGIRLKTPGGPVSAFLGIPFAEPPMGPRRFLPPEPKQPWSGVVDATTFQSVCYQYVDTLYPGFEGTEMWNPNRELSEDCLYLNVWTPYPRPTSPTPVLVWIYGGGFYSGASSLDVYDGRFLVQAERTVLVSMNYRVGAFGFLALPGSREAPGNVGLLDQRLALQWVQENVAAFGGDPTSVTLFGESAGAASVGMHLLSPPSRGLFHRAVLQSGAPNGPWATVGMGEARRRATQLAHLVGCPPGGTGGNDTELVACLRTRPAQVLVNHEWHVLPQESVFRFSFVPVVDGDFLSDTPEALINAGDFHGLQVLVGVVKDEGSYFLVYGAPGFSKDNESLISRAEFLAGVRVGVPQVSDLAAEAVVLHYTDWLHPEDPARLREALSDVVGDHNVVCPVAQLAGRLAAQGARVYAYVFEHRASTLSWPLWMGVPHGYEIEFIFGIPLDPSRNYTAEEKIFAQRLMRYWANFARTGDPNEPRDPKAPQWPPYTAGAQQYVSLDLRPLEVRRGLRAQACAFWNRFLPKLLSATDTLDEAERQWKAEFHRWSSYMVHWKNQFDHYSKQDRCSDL
- assay_text: Inhibition of AChE (unknown origin)
measured_parameter: IC50 (nM)

| compound | reading |
| --- | --- |
| Cc1cccc(-c2nccc(N3CCOCC3)n2)c1 | 430 |
| CCOC(=O)C1=C(C)N=C2SC(c3ccc([N+](=O)[O-])cc3)=NN2C1c1ccc(C=O)cn1 (configuration not stated) | 82 |

----------
- tgt: Cholinesterase (Homo sapiens, UniProt P06276)
- Sequence (P06276 whole entry): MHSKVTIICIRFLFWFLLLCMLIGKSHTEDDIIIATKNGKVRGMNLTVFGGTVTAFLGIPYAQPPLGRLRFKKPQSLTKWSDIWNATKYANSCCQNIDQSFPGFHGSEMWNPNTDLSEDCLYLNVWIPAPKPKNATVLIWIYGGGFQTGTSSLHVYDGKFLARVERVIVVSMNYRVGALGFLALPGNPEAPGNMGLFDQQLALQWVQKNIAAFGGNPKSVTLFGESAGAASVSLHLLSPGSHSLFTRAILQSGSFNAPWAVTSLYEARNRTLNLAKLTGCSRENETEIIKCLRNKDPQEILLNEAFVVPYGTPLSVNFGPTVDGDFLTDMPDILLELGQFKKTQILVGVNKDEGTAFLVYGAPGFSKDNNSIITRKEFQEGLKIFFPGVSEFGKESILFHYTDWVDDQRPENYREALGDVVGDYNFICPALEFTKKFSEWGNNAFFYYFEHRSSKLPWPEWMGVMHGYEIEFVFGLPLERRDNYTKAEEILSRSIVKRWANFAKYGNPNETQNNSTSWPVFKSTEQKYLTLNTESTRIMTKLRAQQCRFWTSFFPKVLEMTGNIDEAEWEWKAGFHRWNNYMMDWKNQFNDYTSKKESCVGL
- assay_text: Inhibition of BChE (unknown origin) using butyrylthiocholine iodide as substrate by Ellman's method

| chemical_structure | output_unit | IC50 |
| --- | --- | --- |
| N#Cc1c(N)nc(SCCCSc2nc(N)c(C#N)c(-c3ccc(Br)cc3)n2)nc1-c1ccc(Br)cc1 | µM | 12.2 |

----------
- tgt: Amine oxidase [flavin-containing] B (Homo sapiens, UniProt P27338)
- Sequence (P27338 whole entry): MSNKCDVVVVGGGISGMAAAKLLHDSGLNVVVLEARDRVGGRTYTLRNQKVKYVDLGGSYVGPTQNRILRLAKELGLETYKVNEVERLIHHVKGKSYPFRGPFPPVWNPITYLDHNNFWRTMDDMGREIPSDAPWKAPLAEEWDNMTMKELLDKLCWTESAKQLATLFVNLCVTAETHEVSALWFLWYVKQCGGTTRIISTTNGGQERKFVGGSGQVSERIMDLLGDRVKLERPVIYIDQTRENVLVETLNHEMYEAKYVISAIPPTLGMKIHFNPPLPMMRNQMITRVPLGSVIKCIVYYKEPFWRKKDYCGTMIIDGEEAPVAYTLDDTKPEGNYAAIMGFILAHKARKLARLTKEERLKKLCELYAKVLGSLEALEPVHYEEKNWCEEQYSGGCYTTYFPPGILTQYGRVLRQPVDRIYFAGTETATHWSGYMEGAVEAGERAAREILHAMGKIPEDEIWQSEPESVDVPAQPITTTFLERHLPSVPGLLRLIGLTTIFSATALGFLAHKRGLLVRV
- assay_text: Inhibition of human MAO-B
pIC50: −log10 of the molar value.
Each item that follows carries a reported pIC50.
measured_parameter: pIC50

| chemical_structure | censor_symbol | reading |
| --- | --- | --- |
| C#CCCCOc1ccc(-c2cc(-c3ccc(OCCN4CCCC4)cc3)nc(-c3ccccc3)n2)cc1 | < | 4.30 |
| C#CCCCOc1ccc(-c2cc(-c3ccc(OCCN4CCOCC4)cc3)nc(-c3ccccc3)n2)cc1 | = | 5.07 |

----------
- tgt: Amine oxidase [flavin-containing] B (Homo sapiens)
- assay_text: Inhibition of recombinant human MAO-B assessed as fluorescence measured after 30 mins by Amplex Red reagent assay
pIC50: −log10 of the molar value.

| chemical_structure | censor_symbol | pIC50 |
| --- | --- | --- |
| C#CCOc1ccc(-c2cc(-c3ccc(OCCN4CCOCC4)cc3)nc(N)n2)cc1 | < | 4.30 |
| C#CCNc1ccc(-c2cc(-c3ccc(OCCN4CCOCC4)cc3)nc(N)n2)cc1 | = | 7.40 |

----------
- tgt: Cholinesterase (Homo sapiens)
- assay_text: Inhibition of human BChE by Ellman's method
pIC50: −log10 of the molar value.
measured_parameter: pIC50

| compound | tgt | measured_parameter | reading |
| --- | --- | --- | --- |
| N#CC1C(N)N2CCCNC2C(C#N)C12C(=O)Nc1ccc(Br)cc12 (stereo unspecified) | Cholinesterase (Homo sapiens) | pIC50 | 4.76 |

----------
- tgt: Histone deacetylase 1 (Homo sapiens, UniProt Q13547)
- Sequence (Q13547 whole entry): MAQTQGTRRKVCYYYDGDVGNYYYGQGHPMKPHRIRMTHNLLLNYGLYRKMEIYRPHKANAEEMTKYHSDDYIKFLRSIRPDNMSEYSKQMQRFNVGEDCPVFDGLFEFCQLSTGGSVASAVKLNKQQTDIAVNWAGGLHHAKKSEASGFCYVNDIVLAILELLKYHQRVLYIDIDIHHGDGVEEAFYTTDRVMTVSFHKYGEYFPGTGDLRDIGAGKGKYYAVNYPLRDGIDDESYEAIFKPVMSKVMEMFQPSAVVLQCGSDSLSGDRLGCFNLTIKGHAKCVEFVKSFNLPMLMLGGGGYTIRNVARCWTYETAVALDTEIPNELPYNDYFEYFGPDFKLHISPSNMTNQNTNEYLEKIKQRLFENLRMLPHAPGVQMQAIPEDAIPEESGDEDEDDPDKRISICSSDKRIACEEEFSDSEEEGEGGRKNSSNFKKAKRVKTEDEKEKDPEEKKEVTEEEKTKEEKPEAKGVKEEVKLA
pIC50: −log10 of the molar value.
measured_parameter: pIC50

| compound | reading |
| --- | --- |
| CC(c1nc2c(cnn2C2CCCC2)c(=O)[nH]1)N1CC(Cc2ccc(C(=O)Nc3ccccc3N)cc2)C1 (stereo unspecified) | 7.00 |

----------
// reported IC50 per item
- tgt: UniProtKB P22303
- assay_text: Inhibition of human AChE by Ellman's method
measured_parameter: IC50

| compound | measured_parameter | reading |
| --- | --- | --- |
| Cc1ccc(O)c(CNc2c(N)n(C)c(=O)n(C)c2=O)c1 | IC50 | 4.65 nM |
| N#CC1C(N)N2CCCNC2C(C#N)C12C(=O)Nc1ccccc12 (configuration not stated) | IC50 | 4040 nM |
